TESTED ON: Human TRPA1 expressing CHO cells (Homo sapiens)
Construct: expressed in transfected cells; host or cells: CHO cells (G-418 selection)
Sequence (O75762 whole entry): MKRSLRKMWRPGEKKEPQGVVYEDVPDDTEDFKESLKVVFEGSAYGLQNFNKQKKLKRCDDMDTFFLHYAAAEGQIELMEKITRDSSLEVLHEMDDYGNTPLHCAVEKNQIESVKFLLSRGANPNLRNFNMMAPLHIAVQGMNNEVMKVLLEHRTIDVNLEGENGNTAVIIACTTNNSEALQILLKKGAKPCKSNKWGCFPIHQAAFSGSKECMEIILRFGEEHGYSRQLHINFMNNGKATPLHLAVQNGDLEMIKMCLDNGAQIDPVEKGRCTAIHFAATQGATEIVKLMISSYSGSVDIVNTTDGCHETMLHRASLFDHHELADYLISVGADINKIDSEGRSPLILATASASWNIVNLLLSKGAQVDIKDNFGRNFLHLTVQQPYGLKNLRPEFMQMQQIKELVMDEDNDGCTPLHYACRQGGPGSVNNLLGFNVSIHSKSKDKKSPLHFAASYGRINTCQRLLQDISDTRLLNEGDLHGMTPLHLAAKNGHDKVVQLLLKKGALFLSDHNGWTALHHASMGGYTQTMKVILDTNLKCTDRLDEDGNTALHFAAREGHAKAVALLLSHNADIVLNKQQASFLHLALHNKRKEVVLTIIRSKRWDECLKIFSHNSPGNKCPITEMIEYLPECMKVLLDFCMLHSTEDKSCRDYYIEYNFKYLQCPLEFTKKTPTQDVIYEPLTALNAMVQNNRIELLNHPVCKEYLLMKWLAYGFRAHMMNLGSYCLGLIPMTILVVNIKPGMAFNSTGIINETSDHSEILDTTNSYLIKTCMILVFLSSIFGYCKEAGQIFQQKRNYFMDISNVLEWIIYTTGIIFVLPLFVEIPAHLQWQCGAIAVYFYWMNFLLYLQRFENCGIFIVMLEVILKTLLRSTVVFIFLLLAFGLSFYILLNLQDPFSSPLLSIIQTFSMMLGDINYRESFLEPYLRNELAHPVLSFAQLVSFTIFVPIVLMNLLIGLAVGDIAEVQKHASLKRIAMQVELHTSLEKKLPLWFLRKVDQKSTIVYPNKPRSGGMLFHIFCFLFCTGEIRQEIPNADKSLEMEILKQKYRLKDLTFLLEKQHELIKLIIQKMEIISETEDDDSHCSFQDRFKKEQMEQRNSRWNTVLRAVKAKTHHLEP
PROTOCOL: 45Calcium uptake assay, inhibition of AITC induced calcium uptake (human)
Assay type: cell-based
STUDY CONDITIONS: human TRPA1 CHO cells, AITC 30 μM; read-out: Human IC50 value (Range)
pIC50: −log10 of the molar value.
So I've got a bunch of compounds here, and I need their pIC50 values.

Tested on Human TRPA1 expressing CHO cells (Homo sapiens): CC(C)Cc1ccc(-c2csc(NC(=O)Cc3scc4c3c(=O)n(C)c(=O)n4C)n2)cc1 [Example 44] . Observed pIC50: 6.30 to 7.30

Tested on Human TRPA1 expressing CHO cells (Homo sapiens): CC(C)c1sc2c(c1CC(=O)Nc1nc(-c3ccc(C(F)(F)F)c(F)c3)cs1)c(=O)n(C)c(=O)n2C [Example 37] . Observed pIC50: > 7.30

Tested on Human TRPA1 expressing CHO cells (Homo sapiens): Cn1c(=O)c2c(CC(=O)Nc3nc(-c4cc(F)cc(C(F)(F)F)c4)cs3)csc2n(C)c1=O [Example 8] . Observed pIC50: > 7.30

Tested on Human TRPA1 expressing CHO cells (Homo sapiens): Cc1sc2c(c1CC(=O)Nc1nc(-c3ccc(F)cc3F)cs1)c(=O)n(C)c(=O)n2C [Example 22] . Observed pIC50: 6.30 to 7.30

Tested on Human TRPA1 expressing CHO cells (Homo sapiens): Cc1sc2c(c1CC(=O)Nc1nc(-c3ccc(F)c(OC(F)(F)F)c3)cs1)c(=O)n(C)c(=O)n2C [Example 25] . Observed pIC50: > 7.30

Tested on Human TRPA1 expressing CHO cells (Homo sapiens): Cn1c(=O)c2c(CC(=O)Nc3nc(-c4ccc(F)c(OC(F)(F)F)c4)cs3)scc2n(C)c1=O [Example 55] . Observed pIC50: > 7.30

Tested on Human TRPA1 expressing CHO cells (Homo sapiens): Cn1c(=O)c2c(CC(=O)Nc3nc(-c4ccc(C(F)(F)F)c(F)c4)cs3)scc2n(C)c1=O [Example 50] . Observed pIC50: > 7.30

Tested on Human TRPA1 expressing CHO cells (Homo sapiens): Cn1c(=O)c2c(CC(=O)Nc3nc(-c4ccc(OC(F)(F)F)c(F)c4)cs3)csc2n(C)c1=O [Example 11] . Observed pIC50: > 7.30

Tested on Human TRPA1 expressing CHO cells (Homo sapiens): Cn1c(=O)c2c(CC(=O)Nc3nc(-c4ccc(OC(F)(F)F)c(F)c4)cs3)scc2n(C)c1=O [Example 52] . Observed pIC50: > 7.30

Tested on Human TRPA1 expressing CHO cells (Homo sapiens): Cc1sc2c(c1CC(=O)Nc1nc(-c3ccc(Cl)cc3)cs1)c(=O)n(C)c(=O)n2C [Example 19] . Observed pIC50: 6.30 to 7.30

Tested on Human TRPA1 expressing CHO cells (Homo sapiens): Cn1c(=O)c2c(CC(=O)Nc3nc(-c4cccc(C(F)(F)F)c4)cs3)scc2n(C)c1=O [Example 46] . Observed pIC50: > 7.30
